These measurements were taken from patent US8076352B2.

- Test system: hypoxia-inducible endogenous VEGF expression in HeLa cells
- assayRemarks: Hypoxia-inducible endogenous VEGF expression, VEGF ELISA of conditioned media (dose-response EC50)
- Type: cell-based
- testSettings: Homo sapiens, HeLa cells, hypoxic conditions (1% O2)
- From the text: The ability of the compounds of the invention to modulate hypoxia-inducible endogenous VEGF expression may be analyzed as follows. VEGF protein levels may be monitored by an ELISA assay (R&D Systems). […] The conditioned media may then be assayed by ELISA, and the concentration of VEGF calculated from the standard ELISA curve of each assay. A dose-response analysis may be performed using the ELISA assay and conditions described above. […] A series of, e.g., seven different concentrations may be analyzed. […]
pEC50: −log10 of the molar value.
# reported pEC50; entries follow

Past entries and their recorded results:
>  <compound>
C=CCOc1ccc(C2c3[nH]c4ccc(Cl)cc4c3CCN2C(=O)OCC(C)C)cc1 (stereo not drawn)

>  <pEC50>
> 8.10

$$$$
>  <compound>
Clc1ccc2[nH]c3c(c2c1)CCNC3CCc1ccccc1 (stereo not drawn)

>  <pEC50>
> 8.10

$$$$
>  <compound>
O=C(Oc1ccc(Cl)cc1)N1CCc2c([nH]c3ccc(Cl)cc23)C1c1ccc(OCCCCCCNCCO)cc1 (stereo not drawn)

>  <pEC50>
> 8.10

$$$$
>  <compound>
CC(C)(C)OC(=O)N[C@@H](Cc1ccccc1)C(=O)Oc1ccc(C2c3[nH]c4ccc(Cl)cc4c3CCN2C(=O)OC(C)(C)C)cc1 (stereo partly drawn)

>  <pEC50>
7.40 to 8.10

$$$$

Please fill in: pEC50 reported for CN1CCN(CCCCOc2ccc(C3c4[nH]c5ccc(Cl)cc5c4CCN3C(=O)Oc3ccc(F)cc3)cc2)CC1 (stereo not drawn) = 6.70 to 7.40

Please fill in: pEC50 reported for CCOC(=O)N1CCc2c([nH]c3ccc(Br)cc23)C1c1ccc(C(=O)N2CCN(CCO)CC2)cc1 (stereo not drawn) = 7.40 to 8.10

Please fill in: pEC50 reported for O=C(Oc1ccccc1Cl)N1CCc2c([nH]c3ccc(Cl)cc23)C1c1ccc(OCCCCl)cc1 (stereo not drawn) = 7.40 to 8.10
